studyTarget: FGFR3 (as measured by BIAcore, Table 1) (UniProt P22607)
procedureText: BIAcore
Measured Kd of individual entries
Answer in nM, number only, no unit symbol.

Worked examples, 4 binders total:
PRO-026 (Fab, V domains shown) VH: QVQLVQSGAEVKKPGASVKVSCKASGYTFTSYYMHWVRQAPGQGLEWMGWINPNSGGTNYAQKFQGRVTMTRDTSISTAYMELSSLRSEDTAVYYCARGYWYAYFTYINYGYFDNWGQGTLVTVSS VL: DIALTQPASVSGSPGQSITISCTGTSSDVGGYNYVSWYQQHPGKAPKLMIYDVSNRPSGVSNRFSGSKSGNTASLTISGLQAEDEADYYCQSYDNNSDVVFGGGTKLTVLG | 4
PRO-055 (Fab, V domains shown) VH: QVQLVQSGAEVKKPGASVKVSCKASGYTFTSYYMHWVRQAPGQGLEWMGWINPNSGGTNYAQKFQGRVTMTRDTSISTAYMELSSLRSEDTAVYYCARSMNSTMYWYLRRVLFDHWGQGTLVTVSS VL: DIALTQPASVSGSPGQSITISCTGTSSDVGGYNYVSWYQQHPGKAPKLMIYDVSNRPSGVSNRFSGSKSGNTASLTISGLQAEDEADYYCQSYDMYNYIVFGGGTKLTVLG | 2.9
PRO-002 (Fab, V domains shown) VH: QVQLVQSGAEVKKPGASVKVSCKASGYTFTSYYMHWVRQAPGQGLEWMGWINPNSGGTNYAQKFQGRVTMTRDTSISTAYMELSSLRSEDTAVYYCARDFLGYEFDYWGQGTLVTVSS VL: DIELTQPPSVSVAPGQTARISCSGDALGDKYASWYQQKPGQAPVLVIYDDSDRPSGIPERFSGSNSGNTATLTISGTQAEDEADYYCQSYDYSADYVFGGGTKLTVLG | 37
PRO-029 (Fab, V domains shown) VH: QVQLVQSGAEVKKPGASVKVSCKASGYTFTSYYMHWVRQAPGQGLEWMGWINPNSGGTNYAQKFQGRVTMTRDTSISTAYMELSSLRSEDTAVYYCARTWQYSYFYYLDGGYYFDIWGQGTLVTVSS VL: DIVLTQSPATLSLSPGERATLSCRASQSVSSSYLAWYQQKPGQAPRLLIYGASSRATGVPARFSGSGSGTDFTLTISSLEPEDFATYYCQQTNNAPVTFGQGTKVEIKR | 6

In: // query Kd value for entry PRO-012 (Fab, V domains shown) VH: QVQLKESGPALVKPTQTLTLTCTFSGFSLSTSGVGVGWIRQPPGKALEWLALIDWDDDKYYSTSLKTRLTISKDTSKNQVVLTMTNMDPVDTATYYCARYHSWYEMGYYGSTVGYMFDYWGQGTLVTVSS VL: DIELTQPPSVSVAPGQTARISCSGDALGDKYASWYQQKPGQAPVLVIYDDSDRPSGIPERFSGSNSGNTATLTISGTQAEDEADYYCQSYDFDFAVFGGGTKLTVLG
Out: 14

In: Which value of Kd has been reported for PRO-054 (Fab, V domains shown) VH: QVQLVQSGAEVKKPGASVKVSCKASGYTFTSYYMHWVRQAPGQGLEWMGWINPNSGGTNYAQKFQGRVTMTRDTSISTAYMELSSLRSEDTAVYYCARNMAYTNYQYVNMPHFDYWGQGTLVTVSS VL: DIELTQPPSVSVAPGQTARISCSGDALGDKYASWYQQKPGQAPVLVIYDDSDRPSGIPERFSGSNSGNTATLTISGTQAEDEADYYCQSYDYFKLVFGGGTKLTVLG in the records?
Out: 3.7

Hello, the source for this data is patent US20090175866A1, in case you need it.
